tested-system: hGPR119 (Homo sapiens, UniProt Q8TDV5)
Construct: expressed in transfected cells; host or cells: CHO
Sequence (Q8TDV5 whole entry): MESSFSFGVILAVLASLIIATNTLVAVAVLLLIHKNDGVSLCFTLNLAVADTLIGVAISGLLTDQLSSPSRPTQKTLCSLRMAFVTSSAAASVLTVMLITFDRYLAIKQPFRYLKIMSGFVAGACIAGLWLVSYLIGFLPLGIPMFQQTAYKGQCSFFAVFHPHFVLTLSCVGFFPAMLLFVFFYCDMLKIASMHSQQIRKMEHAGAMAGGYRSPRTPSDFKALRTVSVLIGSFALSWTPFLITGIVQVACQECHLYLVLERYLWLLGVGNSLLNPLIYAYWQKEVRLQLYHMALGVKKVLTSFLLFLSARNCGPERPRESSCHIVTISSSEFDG
measurement-description: In vitro cyclic AMP assay (Cisbio dynamic 2 HTRF kit) in CHO-hGPR119 cells
Format: cell-based
condition-set: 1 h, cAMP, compound at 1 μM, 60 min, read-out: Induction (% induction at 1 μM)
measurement-kind: activation at 1 µM (%)

> print(dat)
                                   compound  display.unit  value.reported
1  CC(C)OC(=O)N1CC=C(c2nc3ccc(-c4ccc(S(C)(=O)=O)cc4)nc3s2)CC1             %              19
2  CC(C)c1noc(N2CCC([C@H](C)Oc3nc4ccc(-c5ccc(S(C)(=O)=O)nc5)nc4s3)C2)n1 (stereo partly shown)             %               3
3  CCc1cnc(N2CCC([C@H](C)Oc3nc4ccc(-c5ccc(S(C)(=O)=O)nc5)nc4s3)CC2)nc1             %              75
4  CC(C)c1noc(N2CCC(C(C)Oc3nc4ccc(-c5ccc(NS(C)(=O)=O)cc5)nc4s3)CC2)n1 (stereo not shown)             %              39
5  CC(C)c1noc(N2CCC(C(C)Oc3nc4ccc(-c5cncs5)nc4s3)CC2)n1 (stereo not shown)             %              30
6  CCc1cnc(N2CCC([C@H](C)Oc3nc4ccc(-c5cnc(Cl)nc5)nc4s3)CC2)nc1             %              86
7  Cc1cc(-c2ccc(S(C)(=O)=O)cc2)nc2sc(OCC3CCN(c4nc(C(C)C)no4)CC3)nc12             %              11
